Please respond with reported TGI for every item in the list.
- System: U251 CNS
- experiment: NCI tumour cell line growth inhibition, 48 h

// known answers, use as guide
| compound | test.readout | assay.result |
| --- | --- | --- |
| O=[N+]([O-])c1ccc(C2Nn3c(nnc3-c3cccc([N+](=O)[O-])c3)S2)cc1 (stereo not drawn) | TGI | > 100 µM |
| c1ccc(CN2C3C4N(Cc5ccccc5)C2C2N(Cc5ccccc5)C(C(N2Cc2ccccc2)N4Cc2ccccc2)N3Cc2ccccc2)cc1 | TGI | > 100 µM |
| Fc1ccc(C2CC(c3cccc(Nc4ccncc4)c3)=NN2c2ccccc2)cc1 (stereo not drawn) | TGI | 3.64 µM |
| CCc1nc(N)nc(N)c1-c1ccc(N2CCNCC2)c([N+](=O)[O-])c1 | TGI | > 100 µM |

Fill in TGI for each of the 4 compounds listed.
1. CC(C)(C)OC(=O)NC(Cc1ccc(OC(C)(C)C)cc1)C(=O)N[C@H]1CC[C@H](C(=O)O)C1 (stereo partly drawn)
2. O=C(O[C@H](/C=C/c1ccccc1)P1(=O)N(Cc2ccccc2)[C@H]2CCCC[C@@H]2N1Cc1ccccc1)c1ccccc1
3. C=C1CC[C@@](C)(c2cc(Br)c(C)cc2OC(C)=O)[C@H]1C
4. CC1=C(C)C2(C#N)C(=O)N3C(=NC(c4ccco4)NC3c3ccco3)C2(C#N)C(c2ccco2)N1 (stereo not drawn)

1. > 100 µM
2. 88.7 µM
3. 29.7 µM
4. > 100 µM

----------
Exercise: for every item that follows, state its recorded TGI.
- Tested on: ACHN renal
- experiment: NCI tumour cell line growth inhibition, 48 h

Example results:
| compound | assay.system | assay.result |
| --- | --- | --- |
| O=[N+]([O-])c1ccc(C2=NOC(c3ccccc3)N2C23CC4CC(CC(C4)C2)C3)cc1 (centres undefined) | ACHN renal | > 100 µM |
| c1ccc(C2=Nc3ccccc3N3CNN=C23)cc1 | ACHN renal | > 100 µM |
| Nc1nc(N)c(N=Nc2ccccc2)c(=O)[nH]1 | ACHN renal | 96.7 µM |
| CCCCN(CCCC)CC(C(=O)Nc1ccc([N+](=O)[O-])cc1[N+](=O)[O-])/C(C)=N\NC(=O)c1ccncc1 (centres undefined) | ACHN renal | > 100 µM |
| O=C(CCl)N1CCN(c2ccccn2)CC1 | ACHN renal | 61.2 µM |
| CCc1cccc(C(C)C)c1NC(=O)C(=O)Nn1c(=S)[nH]c2ccccc2c1=O | ACHN renal | > 100 µM |
| COc1cc(O)c2c(c1C)C(C)(O)c1c(C)coc1C2=O (centres undefined) | ACHN renal | > 100 µM |
| CCOC(=O)C1(C)C2=CC=C(O2)C(C)(C)C2=CC=C(O2)C(C)(C)C2=CC=C(O2)C(C)(C)C2=CC=C1O2 | ACHN renal | > 100 µM |

I would be grateful if you could provide TGI for each of the following entries.
1. CCOC(=O)C(Cc1ccccc1)n1c(O)c(/C=N/c2ncc(Cc3ccc(Cl)cc3Cl)s2)sc1=S (centres undefined)
2. Cn1c(=O)oc2cc(C(O)CN3CCN(Cc4ccc5c(c4)OCO5)CC3)ccc21 (centres undefined)
3. Cc1cc2c3c(nc4ccccc42)C(=O)c2cccnc2-c3n1
4. O=C(Nc1ccc(C(F)(F)F)cc1[N+](=O)[O-])C(=O)Nn1c(=S)[nH]c2ccccc2c1=O

> 100 µM
> 100 µM
1.45 µM
> 100 µM
